System: Escherichia coli TOP10
Test: shrunken log2 fold change of peptide-encoding DNA abundance (4.5 h post-induction vs induction); higher = less antimicrobial activity (less host growth inhibition)
Settings: time post-induction: 4.5 h; library: site-saturation at positions 5, 18, 19, 20
Assign shrunken log2 fold change to each entry below.

Use these answered entries as a reference point.
1) RRIRFRPPRLPRPRPRPRNMPRP
-0.127
2) RRIRHRPPRLPRPRPRPSMEPRP
-0.424
3) RRIRRRPPRLPRPRPRPQDPPRP
0.376
4) RRIRHRPPRLPRPRPRPEDPPRP
0.0512

# return shrunken log2 fold change for each item in the list
1. RRIRIRPPRLPRPRPRPMQCPRP
2. RRIRRRPPRLPRPRPRPHACPRP

Result ::
1. -0.235
2. 0.192

* * *

System: Escherichia coli TOP10
Assay: shrunken log2 fold change of peptide-encoding DNA abundance (4.5 h post-induction vs induction); higher = less antimicrobial activity (less host growth inhibition)
Conditions: time post-induction: 4.5 h; library: site-saturation at positions 5, 18, 19, 20
quantity_name: shrunken log2 fold change

1. RRIRTRPPRLPRPRPRPQGAPRP
-0.0215
2. RRIRRRPPRLPRPRPRPGGKPRP
0.0881
3. RRIRERPPRLPRPRPRPIPQPRP
0.13
4. RRIRNRPPRLPRPRPRPAFDPRP
0.235

From here, focus on the item given below.
Query :: Any idea what shrunken log2 fold change was measured for RRIRGRPPRLPRPRPRPVSPPRP ?
Result :: 0.101

* * *

Assign shrunken log2 fold change to each entry below.
Test system: Escherichia coli TOP10
Assay: shrunken log2 fold change of peptide-encoding DNA abundance (4.5 h post-induction vs induction); higher = less antimicrobial activity (less host growth inhibition)
Settings: time post-induction: 4.5 h; library: site-saturation at positions 5, 18, 19, 20
Numbers only.

Use these answered entries as a reference point.
1) RRIRKRPPRLPRPRPRPRILPRP
0.0416
2) RRIRDRPPRLPRPRPRPVYQPRP
-0.263
3) RRIRTRPPRLPRPRPRPEQDPRP
0.0235
4) RRIRPRPPRLPRPRPRPWCKPRP
-0.162
5) RRIRKRPPRLPRPRPRPVIGPRP
0.233

# return shrunken log2 fold change for each item in the list
1. RRIRIRPPRLPRPRPRPQQSPRP
2. RRIRARPPRLPRPRPRPGTGPRP
3. RRIRERPPRLPRPRPRPVDYPRP
4. RRIRHRPPRLPRPRPRPFFMPRP
5. RRIRKRPPRLPRPRPRPSVFPRP
6. RRIRMRPPRLPRPRPRPISTPRP

Result ::
[-0.113, 0.158, 0.0839, -0.564, 0.244, 0.166]

# return shrunken log2 fold change for each item in the list
1. RRIRWRPPRLPRPRPRPEPLPRP
2. RRIRHRPPRLPRPRPRPFKNPRP
3. RRIRFRPPRLPRPRPRPNTTPRP
4. RRIRARPPRLPRPRPRPYYPPRP
5. RRIRARPPRLPRPRPRPTGGPRP
6. RRIRPRPPRLPRPRPRPSLYPRP
7. RRIRKRPPRLPRPRPRPSKLPRP

Result ::
1. 0.417
2. -0.0803
3. -0.0257
4. -0.349
5. 0.836
6. -0.326
7. 0.0104

# return shrunken log2 fold change for each item in the list
1. RRIRPRPPRLPRPRPRPHVCPRP
2. RRIRARPPRLPRPRPRPAEDPRP
3. RRIRERPPRLPRPRPRPVVAPRP

Result ::
[0.171, 1.19, 0.182]

Query :: Any idea what shrunken log2 fold change was measured for RRIRNRPPRLPRPRPRPLPQPRP ?
Result :: 0.229

* * *

Tested on: Escherichia coli TOP10
Assay: shrunken log2 fold change of peptide-encoding DNA abundance (4.5 h post-induction vs induction); higher = less antimicrobial activity (less host growth inhibition)
Conditions: time post-induction: 4.5 h; library: site-saturation at positions 5, 18, 19, 20
Assign shrunken log2 fold change to each entry below.
Give bare numbers.

1. RRIRERPPRLPRPRPRPPDLPRP
0.16
2. RRIRKRPPRLPRPRPRPYAKPRP
-0.0729
3. RRIRLRPPRLPRPRPRPSWLPRP
-0.532
4. RRIRGRPPRLPRPRPRPNPRPRP
0.684
5. RRIRQRPPRLPRPRPRPFTKPRP
-0.0312

# return shrunken log2 fold change for each item in the list
1. RRIRVRPPRLPRPRPRPNDDPRP
2. RRIRHRPPRLPRPRPRPIMWPRP
3. RRIRFRPPRLPRPRPRPVIEPRP

Result ::
1. -0.299
2. -0.0163
3. -0.161

* * *

Assign shrunken log2 fold change to each entry below.
Test system: Escherichia coli TOP10
Assay: shrunken log2 fold change of peptide-encoding DNA abundance (4.5 h post-induction vs induction); higher = less antimicrobial activity (less host growth inhibition)
Conditions: time post-induction: 4.5 h; library: site-saturation at positions 5, 18, 19, 20

Use these answered entries as a reference point.
1. RRIRKRPPRLPRPRPRPWFLPRP
-0.157
2. RRIRLRPPRLPRPRPRPNWCPRP
0.374
3. RRIRDRPPRLPRPRPRPEEIPRP
-0.0062
4. RRIRHRPPRLPRPRPRPWINPRP
-0.616
5. RRIRGRPPRLPRPRPRPKNCPRP
-0.111

From here, focus on the item given below.
Query :: Any idea what shrunken log2 fold change was measured for RRIRLRPPRLPRPRPRPKVQPRP ?
Result :: 0.22

* * *

Tested on: Escherichia coli TOP10
Assay: shrunken log2 fold change of peptide-encoding DNA abundance (4.5 h post-induction vs induction); higher = less antimicrobial activity (less host growth inhibition)
Conditions: time post-induction: 4.5 h; library: site-saturation at positions 5, 18, 19, 20
Assign shrunken log2 fold change to each entry below.
One number for each entry.

Use these answered entries as a reference point.
1. RRIRTRPPRLPRPRPRPRNNPRP
-0.803
2. RRIRQRPPRLPRPRPRPVHVPRP
-0.0167
3. RRIRFRPPRLPRPRPRPGHIPRP
-0.00306
4. RRIRGRPPRLPRPRPRPYRHPRP
0.161
5. RRIRERPPRLPRPRPRPKGVPRP
0.723
6. RRIRHRPPRLPRPRPRPKCEPRP
-0.148
7. RRIRHRPPRLPRPRPRPNNDPRP
-0.727
8. RRIRFRPPRLPRPRPRPDYIPRP
0.209

# return shrunken log2 fold change for each item in the list
1. RRIRERPPRLPRPRPRPIAWPRP
2. RRIRARPPRLPRPRPRPWFEPRP
3. RRIRNRPPRLPRPRPRPPGCPRP
4. RRIRARPPRLPRPRPRPWYLPRP
5. RRIRARPPRLPRPRPRPIIPPRP

Result ::
1: -0.199; 2: -0.0275; 3: 0.109; 4: -0.161; 5: -0.256

* * *

System: Escherichia coli TOP10
Assay: shrunken log2 fold change of peptide-encoding DNA abundance (4.5 h post-induction vs induction); higher = less antimicrobial activity (less host growth inhibition)
Details: time post-induction: 4.5 h; library: site-saturation at positions 5, 18, 19, 20
quantity_name: shrunken log2 fold change
Answers are plain numbers.

Use these answered entries as a reference point.
1. RRIRARPPRLPRPRPRPPTTPRP
0.775
2. RRIRWRPPRLPRPRPRPPNRPRP
0.148
3. RRIRHRPPRLPRPRPRPLWTPRP
-0.174

From here, focus on the item given below.
Query :: Any idea what shrunken log2 fold change was measured for RRIRGRPPRLPRPRPRPRWNPRP ?
Result :: 0.423

* * *

Test system: Escherichia coli TOP10;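 further: peptides expressed intracellularly from a pBAD plasmid library in pooled LB shake-flask culture, induced with 0.3% L-arabinose, DNA abundance read by NGS, three biological replicates, DESeq2 with apeglm shrinkage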
Experiment: shrunken log2 fold change of peptide-encoding DNA abundance (4.5 h post-induction vs induction); higher = less antimicrobial activity (less host growth inhibition)
Details: time post-induction: 4.5 h; library: site-saturation at positions 5, 18, 19, 20
If the reported shrunken log2 fold change equals or exceeds -0.03, assign 1 (yes). If not, assign 0 (no).

Example entries and their recorded answers appear below.
1) RRIRVRPPRLPRPRPRPLVMPRP
0 (no)
2) RRIRNRPPRLPRPRPRPCTLPRP
0 (no)
3) RRIRKRPPRLPRPRPRPFAYPRP
1 (yes)
4) RRIRARPPRLPRPRPRPFQHPRP
0 (no)
5) RRIRLRPPRLPRPRPRPTWQPRP
1 (yes)
6) RRIRGRPPRLPRPRPRPVDKPRP
1 (yes)
7) RRIRHRPPRLPRPRPRPKSFPRP
1 (yes)
8) RRIRYRPPRLPRPRPRPSLFPRP
0 (no)

Query :: Is reported shrunken log2 fold change greater than or equal to -0.03 here: RRIRQRPPRLPRPRPRPFCRPRP
Result :: 0 (no)

Query :: Is reported shrunken log2 fold change greater than or equal to -0.03 here: RRIRRRPPRLPRPRPRPHMKPRP
Result :: 0 (no)

Query :: Is reported shrunken log2 fold change greater than or equal to -0.03 here: RRIRSRPPRLPRPRPRPLVWPRP
Result :: 1 (yes)

Query :: Is reported shrunken log2 fold change greater than or equal to -0.03 here: RRIRRRPPRLPRPRPRPNNDPRP
Result :: 0 (no)

Query :: Is reported shrunken log2 fold change greater than or equal to -0.03 here: RRIRTRPPRLPRPRPRPHYSPRP
Result :: 0 (no)

Query :: Is reported shrunken log2 fold change greater than or equal to -0.03 here: RRIRHRPPRLPRPRPRPINCPRP
Result :: 1 (yes)

Query :: Is reported shrunken log2 fold change greater than or equal to -0.03 here: RRIRYRPPRLPRPRPRPKKKPRP
Result :: 0 (no)

Query :: Is reported shrunken log2 fold change greater than or equal to -0.03 here: RRIRQRPPRLPRPRPRPVIWPRP
Result :: 1 (yes)
